target: activated rat MMP13 (rat, UniProt P23097 99-466); test: cell-based or functional assay
Readout: IC50, (adapted) rat fluorogenic peptide assay (pM)
Please give a number only; it is taken to be in pM.

As a guide, the following entries are already answered.
Request: Give its IC50, (adapted) rat fluorogenic peptide assay value. Item: 40E09-516G08 clone 70 (bispecific antibody) EVQLVESGGGSVQAGGSLRLSCAASGSTFSRYSMNWYRQAPGKQREFVAGISVGRITNYAVSVRGRFTISRDNAEGTGYLQMNSLKPEDTAVYYCNAGGLQGYWGLGTLVTVSSGGGGSGGGGSGGGGSGGGGSGGGGSGGGGSGGGGSEVQLVESGGGLVQPGGSLRLSCAGSGSIFRINVMAWYRQAPGKQRELVAAITSGGTTNYADSVKGRFTISRDNSKNTVYLQMNSLRPEDTAVYYCYADIGWPYVLDYDFWGQGTLVTVSS
Result: 120

Request: Requested field: IC50, (adapted) rat fluorogenic peptide assay. Item: 62C02-40E09 clone 72 (bispecific antibody) EVQLVESGGALVRPGGSLRLSCAASGFAFSAAYMSWVRQAPGRGLEWVSSISDDGSKTYYADSVKGRFTISRDNAKNTVYLQMNNLKPDDTAVYYCNTGYGATTTRPGRYWGQGTLVTVSSGGGGSGGGGSGGGGSGGGGSGGGGSGGGGSGGGGSEVQLVESGGGSVQAGGSLRLSCAASGSTFSRYSMNWYRQAPGKQREFVAGISVGRITNYAVSVRGRFTISRDNAEGTGYLQMNSLKPEDTAVYYCNAGGLQGYWGLGTLVTVSS
Result: 100

Request: Please report the recorded IC50, (adapted) rat fluorogenic peptide assay for 40E09-62C02 clone 69 (bispecific antibody) EVQLVESGGGSVQAGGSLRLSCAASGSTFSRYSMNWYRQAPGKQREFVAGISVGRITNYAVSVRGRFTISRDNAEGTGYLQMNSLKPEDTAVYYCNAGGLQGYWGLGTLVTVSSGGGGSGGGGSGGGGSGGGGSGGGGSGGGGSGGGGSEVQLVESGGALVRPGGSLRLSCAASGFAFSAAYMSWVRQAPGRGLEWVSSISDDGSKTYYADSVKGRFTISRDNAKNTVYLQMNNLKPDDTAVYYCNTGYGATTTRPGRYWGQGTLVTVSS .
Result: 1120

Request: Fill blank: measured IC50, (adapted) rat fluorogenic peptide assay of the binder C0101PMP516G08 (VHH, Profile 2 Nanobody; also called C0101516G08) VHH: DVQLVESGGGLVQPGGSLRLSCAGSGSIFRINVMAWYRQAPGKQRELVAAITSGGTTNYADSVKGRFTISRDNSKNTVYLQMNSLRPEDTAVYYCYADIGWPYVLDYDFWGQGTLVTVSS is ____.
Result: 4980

Consider now this further binder.
Request: Need IC50, (adapted) rat fluorogenic peptide assay of 40E09-517A01 clone 71 (bispecific antibody) EVQLVESGGGSVQAGGSLRLSCAASGSTFSRYSMNWYRQAPGKQREFVAGISVGRITNYAVSVRGRFTISRDNAEGTGYLQMNSLKPEDTAVYYCNAGGLQGYWGLGTLVTVSSGGGGSGGGGSGGGGSGGGGSGGGGSGGGGSGGGGSEVQLVESGGGLVQPGGSLRLSCAASGRTFSSYAMGWFRQAPGKEREFVAAISWSGGSTYYADSVKGRFTISRDNSKNTVYLQMNSLRPEDTAVYYCTAALAVYGPNRYRYGPVGEYNYWGQGTLVTVSS , thanks.
Result: 110

# credit: patent US12129308
